Tested on: SN12C renal
measurementNotes: NCI-60 one-dose screen, 48 h
assayContext: 10 µM unless noted
This is part of a sample that, as a whole, favours compounds with a hit. Of some 83,000 tested, about 20% had one in any assay. The source made the active and inactive calls. Rule for the calls: active = growth percent below 10; inactive = the rest.
Possible outcomes: active, inactive

molecule	classLabel
COc1cc(/C=C/C(=O)N2CCN(C(=O)/C=C/c3ccccc3)CC2)cc(OC)c1OC	inactive
CCCCCCC/C(=N\N=C(N)N)c1ccc(O)cc1	inactive
COc1cc2c(cc1OC)C1CCN3C(=O)CCC3N1CC2 (stereo not given)	inactive
N#Cc1cnc2cc(OC[C@H](O)CO)c(NC(=O)CC3CSSC3)cc2c1Nc1ccc(OCc2cccc(F)c2)c(Cl)c1	active
COc1ccc(-n2nc3c(c2-c2ccc(OC)c(OC)c2)-c2oncc2CC3)cc1	inactive
CO[C@H]1/C=C/O[C@@]2(C)Oc3c(C)c(O)c4c(O)c(c(/C=N/N5CCN(C)CC5)c(O)c4c3C2=O)NC(=O)/C(C)=C\C=C\C(C)[C@H](O)[C@@H](C)[C@@H](O)[C@@H](C)[C@@H](OC(C)=O)[C@@H]1C (stereo not given in full)	inactive
O=C(CSc1nnc(Nc2ccccc2)s1)NCCc1ccc(F)cc1	inactive
CNc1ccc(CSc2ccc(Cl)cc2)cc1	inactive
Nc1nonc1-c1nc2ccccc2n1CC(=O)Nc1ccc2c(c1)COC2=O	inactive
Cc1cc(O)c2c(c1)C[C@H]1[C@@H]3CC[C@H]4CC(=O)CC[C@]4(C)[C@H]3CC(=O)[C@]21C	inactive
O=C(Nc1ccc(Oc2ccc(NC(=O)Nc3ccc([N+](=O)[O-])cc3)cc2)cc1)Nc1ccc([N+](=O)[O-])cc1	inactive
NC(=O)c1ncn([C@@H]2O[C@H](CO)[C@@H](O)[C@H]2O)n1	inactive
O=C(O)c1ccc(NC(=O)c2ccc(Nc3ccnc(C(F)(F)F)c3)cc2)cc1	inactive
COc1ccc2[nH]cc(/C=C3/C(=O)Nc4ccc(F)cc43)c2c1	inactive
C=C(C)[C@@H]1C[C@H](O)Cc2cc(Cl)cc(Cl)c2N1	inactive
O=C(Nc1ccc(Cl)cc1Cl)Nc1ccc(-c2cccnc2)cc1N1CCC(CO)CC1	inactive
CC1CC(C)/C(=N/NC(N)=O)C(C(O)CC2CCC(=O)NC2=O)C1 (stereo not given)	inactive
C/C(=C\CCc1ccsc1)CC/C=C(\C)CCCN1CCC(CO)CC1	inactive
CCC1=C(c2ccc(OC)cc2)C(C)(C)Oc2cc(O)c(CN3CCCC3)cc21	inactive
CCSc1nnc2n(Cc3ccccc3)c(=O)c3c(C)c(C(N)=O)sc3n12	inactive

----------
System: KM12 colon
measurementNotes: NCI-60 one-dose screen, 48 h (100 = growth as untreated, 0 = no growth, -100 = all killed)
assayContext: 10 µM unless noted
The panel holds about 83,000 compounds, 20% with a hit somewhere; the sample as a whole holds those more often. Active and inactive are the calls of the source. The calls were made as follows: active = growth percent below 10; inactive = the rest.
experimentalReadout: growth

compound	experimentalReadout	valueMeasured
CCN1C[C@@H](C)n2c(c(O)c3c(=O)n(Cc4ccc(F)c(Cl)c4)nc(C(=O)NC)c32)C1=O	growth	21% (inactive)
CCOC(=O)C(Cc1ccccc1)(C(=O)OCC)C(Br)C(=O)c1ccccc1 (stereo not given)	growth	97.9% (inactive)
OCc1nnn(-c2ccccc2)c1CO	growth	116% (inactive)
Cc1cc(O)c2c(c1)C[C@H]1[C@@H]3CC[C@H]4CC(=O)CC[C@]4(C)[C@H]3CC(=O)[C@]21C	growth	81.2% (inactive)
CN1CCN(CC(=O)Nc2nc3c(s2)Nc2cc(Cl)c(Cl)cc2NC3=O)CC1	growth	102% (inactive)

----------
Test system: HOP-62 NSCLC
measurementNotes: NCI-60 one-dose screen, 48 h (100 = growth as untreated, 0 = no growth, -100 = all killed)
assayContext: 10 µM unless noted
Compounds without any hit were thinned out: in the full panel of roughly 83,000, 20% have a hit.
Here, each record is paired with measured growth data.

compound	growth, %
CCOc1cccc(C2CC(=O)Nc3cc4c(cc32)OCO4)c1 (stereo not given)	87
COc1ccc2nc3cc(Cl)ccc3c(N3CCN(c4ccnc(Nc5ccc(F)cc5)n4)CC3)c2c1	92.9
CC[C@]1(O)CC2CN(CCc3c([nH]c4ccccc34)[C@@](C(=O)OC)(c3cc4c(cc3OC)N(C)[C@H]3[C@@](O)(C(=O)OC)[C@H](OC(C)=O)[C@]5(CC)C=CCN6CC[C@]43[C@@H]65)C2)C1 (stereo not given in full)	31.7
Cc1ccsc1/C=C/C1=NCCCN1C	100
O=C1OCC/C1=C\OCCCO/C=C1\CCOC1=O	122
CNc1ccc(CSc2ccc(Cl)cc2)cc1	87.4
C[n+]1c2ccccc2c(NC2CCNCC2)c2[nH]c3ccccc3c21	26.5
CCC1=C(c2ccc(OC)cc2)C(C)Oc2cc(OC(C)=O)ccc21 (stereo not given)	99.7
COc1ccc2nc3cc(Cl)ccc3c(Nc3cc(C(C)C)c(O)cc3C)c2c1	58.2
Cc1nn(-c2ccc(Cl)cc2)c2nc3c(nc12)C(=O)C(=O)c1ccccc1-3	72.1

----------
Tested on: HCC-2998 colon
measurementNotes: NCI-60 one-dose screen, 48 h (100 = growth as untreated, 0 = no growth, -100 = all killed)
assayContext: 10 µM unless noted
The panel holds about 83,000 compounds, 20% with a hit somewhere; the sample as a whole holds those more often. Activity calls are given as the source filed them. The calls were made as follows: active = growth percent below 10; inactive = the rest.

molecule	growth
N#Cc1cnc2cc(OC[C@H](O)CO)c(NC(=O)CC3CSSC3)cc2c1Nc1ccc(OCc2cccc(F)c2)c(Cl)c1	-81.9% (active)
Cc1c(C)c(N2C(=O)C=CC2=O)c(C)c(C)c1N1C(=O)C=CC1=O	97.1% (inactive)
Fc1ccc([C@@H]2CCNC[C@H]2COc2ccc3c(c2)OCO3)cc1	-66.8% (active)
COc1ccc(-c2nn(-c3cccc(Cl)c3)cc2C2CC(c3ccccc3)=NN2C(C)=O)cc1 (centres undefined)	95.4% (inactive)
O=c1c(O)cccn1CCCNCCCN(CCCn1cccc(O)c1=O)CCCn1cccc(O)c1=O	101% (inactive)
CC(C)c1nc(N(C)S(C)(=O)=O)nc(-c2ccc(F)cc2)c1/C=C/[C@@H](O)C[C@@H](O)CC(=O)O	97.5% (inactive)
NNC(=O)C1CC2c3ccccc3C1c1ccccc12 (centres undefined)	101% (inactive)
O=C1NCN(c2ccccc2)C12CCN(CCCC(c1ccc(F)cc1)c1ccc(F)cc1)CC2	15.9% (inactive)
CN(C)c1nc(N)nc(Cn2c(-c3nonc3N)nc3ccccc32)n1	82.7% (inactive)

----------
System: NCI-H322M lung
measurementNotes: NCI-60 one-dose screen, 48 h (100 = growth as untreated, 0 = no growth, -100 = all killed)
assayContext: 10 µM unless noted
This is part of a sample that, as a whole, favours compounds with a hit. Of some 83,000 tested, about 20% had one in any assay. Active and inactive are the calls of the source. The calls were made as follows: active = growth percent below 10; inactive = the rest.

compound	growth
O=C(c1nn(-c2ccc(Cl)cc2)cc1O)n1nc(C(F)(F)F)cc1-c1ccccc1	-1.34% (active)
O=C(CSc1nc2c(n1Nc1ccccc1)-c1ccccc1SC2)Nc1nc(-c2ccc(Cl)cc2)cs1	91.1% (inactive)
O=C(CCc1nnc2sc(Cc3ccccc3Cl)nn12)c1nc2ccccc2[nH]1	85.2% (inactive)
O=C1c2ccccc2-c2c1nc1ccccc1[n+]2[O-]	97% (inactive)
Cc1ccc(C(O)C2=CC(=O)c3ccccc3C2=O)cc1 (stereo not given)	99.3% (inactive)
CCOC(=O)/C=C(/C)Sc1cc(O)c2ccccc2c1O	-19.9% (active)
Cc1ccc2c(c1)C(=O)/C(=C/c1ncc([N+](=O)[O-])n1C)O2	75.6% (inactive)
C=Cc1nn2c(CCC(=O)c3nc4ccccc4[nH]3)nnc2s1	94% (inactive)
C/C(=C\CCc1ccsc1)CC/C=C(\C)CCCN1CCC(CO)CC1	76.2% (inactive)
Nc1ccc(C2=NN(c3ccccc3)C(c3ccc(Cl)cc3)C2)cc1 (stereo not given)	88.2% (inactive)
COc1ccc(C(=O)/C=C/c2c(Cl)nc3c(c(C)nn3-c3ccccc3)c2-c2ccc(Br)cc2)cc1	109% (inactive)
COc1ccc(-c2cc(Cc3cccs3)c(=O)n(Cn3cncn3)n2)cc1	100% (inactive)
N#CCCN(CCO)c1ccccc1	93.7% (inactive)
CCCCCCCC/C=C\CCCCCCCCOc1ccccc1CC(=O)NCC[N+]1(C)CCCC1	103% (inactive)
S=C(c1ccccc1)N1CCN(c2cccc(Cl)c2)CC1	104% (inactive)
Cc1c(C(N)=O)sc2c1c(=O)n(Cc1ccccc1)c1nnc(S(=O)(=O)CC(=O)Nc3ccc(Cl)cc3)n21	34.8% (inactive)
COc1cccc2c1C(=O)c1c(O)c3c(c(O)c1C2=O)C[C@@](O)(/C(C)=N/NC(=O)c1cccc([N+](=O)[O-])c1)C[C@@H]3OC1CC(N)C(O)C(C)O1 (stereo not given in full)	-3.02% (active)
NC(=O)c1ccccc1NC(=O)c1ccccc1Cl	109% (inactive)
N#Cc1cnc2cc(OC[C@H](O)CO)c(NC(=O)CC3CSSC3)cc2c1Nc1ccc(OCc2cccc(F)c2)c(Cl)c1	-85.4% (active)
Cc1nn(-c2ccccc2)c2nc3c(nc12)C(=O)CCC3	93.1% (inactive)
OC(CCC(O)(c1ccccc1)c1ccccc1)(c1ccccc1)c1ccccc1	102% (inactive)
Cc1ccc(NC(=O)COC(=O)c2ccc(S(=O)(=O)N3CCCCCC3)cc2)cc1	131% (inactive)
NCCCc1nnc(CCC(=O)c2nc3ccccc3[nH]2)o1	97.3% (inactive)
c1ccc2cc(C[n+]3ccn(CCCCCCCn4cc[n+](Cc5ccc6ccccc6c5)c4)c3)ccc2c1	58.6% (inactive)
c1coc([C@@H]2C[C@@H]3Cc4ccc5ccccc5c4N2O3)c1	106% (inactive)
COc1cc(Oc2cc(-c3cccnc3)ccc2NC(=O)Nc2ccc(F)cc2F)cc(OC)c1OC	112% (inactive)
CCN1CCN(c2cc(-c3cn[nH]c3-c3cc(C)cc(OC)c3)nc(-c3cccnc3)n2)CC1	67.5% (inactive)
Cc1cc(C(=O)O)c(C)cc1C(=O)O	76.8% (inactive)
Cc1ccsc1/C=C/C1=NCCCN1C	102% (inactive)
COc1ccc(C2CC(c3cccc(Nc4ccnc5cc(Cl)ccc45)c3)=NN2C=O)cc1 (stereo not given)	62.5% (inactive)
COc1ccc(C2=NNC(c3cc(Cc4ccc(O)c(C5CC(c6ccc(OC)cc6)=NN5)c4)ccc3O)C2)cc1 (stereo not given)	32.1% (inactive)
O=C(/C(=N/O)S(=O)(=O)c1ccccc1)c1cccs1	111% (inactive)
O=C(Nc1ccc(OCc2nnc(-c3ccccc3)o2)c(F)c1)Nc1ccc(Cl)c(C(F)(F)F)c1	28.8% (inactive)
O=NC1CC=CCC1c1ccccc1 (stereo not given)	118% (inactive)
Nc1nc2ncc(CCNc3ccc(C(=O)NC(CCC(=O)O)C(=O)O)cc3)nc2c(=O)[nH]1 (stereo not given)	122% (inactive)
O=C(CCc1nnc(Cn2cncn2)o1)c1nc2ccccc2[nH]1	115% (inactive)
O=C(NCCCO)c1cc(Cl)ccc1O	83.6% (inactive)
O=C(N1CCC(CN=c2cc3n(-c4ccc(Cl)cc4)c4ccccc4nc-3cc2Nc2ccc(Cl)cc2)CC1)N1CC1	-54.3% (active)
Nc1c2ccccc2nc2ccccc12 (tested in a mixture with another compound)	29.8% (inactive)
COc1cc2c(c(OC)c1OC)-c1ccc(NN(C(=O)c3ccccc3)C(=O)c3ccccc3)c(=O)cc1[C@@H](NC(C)=O)CC2 (tested in a mixture with another compound)	17.8% (inactive)
